Measured values drawn from patent US20230183354A1 for this set.

- system_name: T1, human CD103 (integrin Alpha-E) / human integrin Beta-7 heterodimer on cells (human, UniProt P38570 19-1179; P26010 20-798)
- T1 construct: the assay field tells which cells; also called hCD103/hBeta7; CHO.K1-hCD103/hBeta7
- assay: flow cytometry competition on CD103+CD8+ T cells; pre-incubation with unlabeled 01A; table n=1
Here, each record is paired with measured % binding of the fluorescently labeled mAb (IgG pre-incubation = 100) data.
Numbers only; they are read as %.

1. hCD103.05A (antibody, mouse IgG1, V domains shown, Also tested labelled with AF647, conjugated with Df and labelled with 89Zr; these are written under this molecule; also called clone 05A; hCD103.05 mAb) VH: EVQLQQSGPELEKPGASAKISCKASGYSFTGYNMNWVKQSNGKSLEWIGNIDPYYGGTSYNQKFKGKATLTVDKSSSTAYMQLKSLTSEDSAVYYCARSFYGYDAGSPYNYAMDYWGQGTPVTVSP VL: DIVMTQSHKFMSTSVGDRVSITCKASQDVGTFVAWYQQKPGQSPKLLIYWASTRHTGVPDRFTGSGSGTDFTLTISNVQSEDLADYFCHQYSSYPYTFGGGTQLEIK :: 2.6
2. hCD103.07A (antibody, mouse IgG1, V domains shown, also called clone 07A) VH: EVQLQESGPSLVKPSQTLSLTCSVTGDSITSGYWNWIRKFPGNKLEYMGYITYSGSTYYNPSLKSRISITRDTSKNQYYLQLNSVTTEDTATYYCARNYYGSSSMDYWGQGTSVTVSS VL: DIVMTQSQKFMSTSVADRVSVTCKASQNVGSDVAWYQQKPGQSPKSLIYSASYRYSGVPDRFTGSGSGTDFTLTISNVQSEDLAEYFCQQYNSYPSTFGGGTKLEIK :: 0.7
3. hCD103.01A (antibody, V domains shown, Also tested labelled with AF647, conjugated with Df and labelled with 89Zr; these are written under this molecule; also called clone 01A; hCD103.01 mAb) VH: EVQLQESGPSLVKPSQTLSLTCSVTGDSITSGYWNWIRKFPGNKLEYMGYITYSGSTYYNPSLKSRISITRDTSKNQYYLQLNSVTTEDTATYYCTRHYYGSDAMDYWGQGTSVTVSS VL: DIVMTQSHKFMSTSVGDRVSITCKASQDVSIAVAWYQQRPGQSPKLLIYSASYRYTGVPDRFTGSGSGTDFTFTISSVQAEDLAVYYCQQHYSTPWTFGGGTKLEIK :: 1.5

Here is another binder to look at.
Req: Consider the binder hCD103.06A (antibody, mouse IgG1, V domains shown, also called clone 06A; hCD103.06 mAb) VH: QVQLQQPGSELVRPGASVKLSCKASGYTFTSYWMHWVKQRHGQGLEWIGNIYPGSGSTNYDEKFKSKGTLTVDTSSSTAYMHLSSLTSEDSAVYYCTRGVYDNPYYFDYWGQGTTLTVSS VL: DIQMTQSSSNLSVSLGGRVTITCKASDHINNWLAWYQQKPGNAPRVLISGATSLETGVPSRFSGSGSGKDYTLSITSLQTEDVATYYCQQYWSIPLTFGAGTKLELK and give its measured % binding of the fluorescently labeled mAb (IgG pre-incubation = 100).
Resp: 96
